B1: FUT8 (parent)
chain: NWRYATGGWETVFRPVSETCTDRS

variants of: B1; assay: protein stability index of a GFP-peptide fusion (GPS, HEK-293T) (PSI 1-6); higher = more stable; conditions: c terminus: a fixed tail appended;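 further: lentivirally expressed fusions sorted by FACS into six bins by GFP to DsRed ratio, PSI derived from sequencing read proportions per bin multiplied by bin number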
Decision: protein stability index >= 2 yields Met, all other cases yield Not met.

Request: Decide: is the reported value of protein stability index for W9M equal to or greater than 2?
Response: Not met

Request: Same question, V16I this time
Response: Met

Request: Then what about the variant T11K ?
Response: Not met

Request: Queued: E18G
Response: Not met

Request: Same lookup for W2S , please.
Response: Met

Request: Do the same for G8L please
Response: Not met

Request: What about V16H ?
Response: Met

Request: Now this one: R14E
Response: Not met

Request: Next: N1C
Response: Met

Request: W9D ?
Response: Met

Request: Another variant to look at: R14F
Response: Not met

Request: Record: G8N
Response: Met

Request: Lookup N1W
Response: Not met

Request: Check R23H too.
Response: Met

Request: Quick one: E18P
Response: Met

Request: Next up: Y4D
Response: Met

Request: Quick one: N1G
Response: Met
